Assay type: physicochemical
conditionNotes: 25° C.
metricName: half-life (days)
State the answer as a number, implicitly in days.

**Q:** # query: half-life of entry O=P(O)(O)Oc1ccc2c(c1)Oc1ccccc1C21OOC12C1CC3CC(C1)CC2C3 (stereo not shown)
**A:** 4380
